Please provide measured Percent Control for the entries that follow.
Tested on: HIPK1
Conditions: Compound Concentration (nM):1000;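 note: KINOMEscan scanMAX binding as percent activity remaining versus control; lower means stronger binding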
Report the value in % with no unit label.

Recorded Percent Control (molecule NS(=O)(=O)c1ccc(Nc2ncc(-c3ccccc3)o2)cc1 [GW572399X] ): 100

Recorded Percent Control (molecule COc1ccc2[nH]c3c4[nH]c5ccc(OC)cc5c4c4c(c3c2c1)C(=O)NC4=O [GW296115X] ): 56

Recorded Percent Control (molecule CN(C)CCNC(=O)Nc1ccc(N(C)c2ccnc(Nc3ccc(CS(C)(=O)=O)cc3)n2)cc1.Cl [GW830900A] ): 88

Recorded Percent Control (molecule CC1=C(C(=O)Nc2ccc3[nH]ncc3c2)C(c2ccc3ccccc3c2)CC(=O)N1 (centres unmarked) [GSK270822A] ): 87

Recorded Percent Control (molecule COc1ccccc1-c1cc(/C=C2\C(=O)Nc3ncc(Br)cc32)cc(Br)c1O [GW442130X] ): 66

Recorded Percent Control (molecule NS(=O)(=O)c1ccc(N/N=C2\C(=O)Nc3ccc(C(=O)NCc4ccncc4)cc32)cc1 [GW300657X] ): 19

Recorded Percent Control (molecule COc1ccc(COc2ccc(Cc3cnc(N)nc3N)cc2OC)cc1 [GW632580X] ): 100

Recorded Percent Control (molecule CCn1c(-c2nonc2N)nc2c(C#CC(C)(C)O)nc(OCCNC)cc21.Cl [GSK949675] ): 42

Recorded Percent Control (molecule COc1cccc(-c2c[nH]c3c(N/N=C/c4ccncc4)ncnc23)c1 [GW814408X] ): 29

Recorded Percent Control (molecule COc1cc(/C=N/Nc2ncnc3[nH]ncc23)ccc1O [GW578748X] ): 24

Recorded Percent Control (molecule COc1cc2ncnc(Nc3ccc4c(cnn4Cc4ccccc4)c3)c2cc1OC.Cl [GW282449A] ): 100

Recorded Percent Control (molecule COc1ccc2cc(-c3c(-c4ccncc4)nc(-c4ccc(S(C)(=O)=O)cc4C)n3C)ccc2c1 [SB-633825] ): 77

Recorded Percent Control (molecule COc1cc2ncn(-c3cc(O[C@H](C)c4ccccc4Cl)c(C(N)=O)s3)c2cc1OC [GSK237701A] ): 68

Recorded Percent Control (molecule O=C1Nc2ccc(C(=O)c3ccco3)cc2C1=Cc1cc(Cl)c(O)c(Cl)c1 [GW406108X] ): 11

Recorded Percent Control (molecule NS(=O)(=O)c1ccc(N/N=C2\C(=O)Nc3ccc(Cl)cc32)cc1 [GW280670X] ): 98

Recorded Percent Control (molecule C[C@@H](Oc1cc(-n2cnc3ccc(OC4CCN(C)CC4)cc32)sc1C(N)=O)c1ccccc1Cl [GSK579289A] ): 61

Recorded Percent Control (molecule CN1CCN(C(=O)c2ccc(NC(=O)Nc3ccc(N(C)c4ccnc(Nc5ccc(CS(C)(=O)=O)cc5)n4)cc3)cc2)CC1.Cl [GW830263A] ): 72

====

Test system: EGFR(L858R,T790M)
Conditions: Compound Concentration (nM):1000
Please provide measured Percent Control for the entries that follow.
Report the value in % with no unit label.

Recorded Percent Control (molecule COc1ccc2c(-c3ccnc(Nc4cccc(OC(F)(F)F)c4)n3)cnn2n1 [GW810372X] ): 100

Recorded Percent Control (molecule COc1cc2ncn(-c3cc(O[C@H](C)c4ccccc4Cl)c(C(N)=O)s3)c2cc1OC [GSK237701A] ): 79

Recorded Percent Control (molecule O=C(Nc1n[nH]c2nc(-c3ccc(O)cc3)c(Br)cc12)C1CC1 ): 100

Recorded Percent Control (molecule C/C(Nc1ccc(S(N)(=O)=O)cc1)=C1/C(=O)Nc2ccccc21 [GW335962X] ): 95

Recorded Percent Control (molecule COc1cc(N2CCN(C(C)C)CC2)ccc1Nc1nc(Nc2ccc(F)cc2C(=O)NC[C@@H](O)CO)c2cc[nH]c2n1 [GSK1392956A] ): 7.6

Recorded Percent Control (molecule COC(=O)Nc1nc2ccc(Oc3ccc(NC(=O)Nc4cc(C(F)(F)F)ccc4F)cc3)cc2s1.Cl [GW693917A] ): 95

Recorded Percent Control (molecule CC(C)COC(=O)c1ccc2c(c1)/C(=C/Nc1ccc(S(N)(=O)=O)cc1)C(=O)N2 [GW416981X] ): 100

Recorded Percent Control (molecule CC1=C(C(=O)Nc2ccc3[nH]ncc3c2)C(c2ccc(Cl)c(Cl)c2)CC(=O)N1 (stereo not drawn) [GSK299115A] ): 65

Recorded Percent Control (molecule COc1ccccc1-c1cc(/C=C2\C(=O)Nc3ncc(Br)cc32)cc(Br)c1O [GW442130X] ): 85
